biological target: Mmp53 (Mus musculus, UniProt P02340 1-390); experiment: fluorescence anisotropy competition titration; 25 mM sodium phosphate (purification buffer pH 7.2), 225 mM NaCl, 10% v/v glycerol, 5 mM DTT, 0.2 mg/mL BSA, 22 C; low values mean tight binding; conditions: protein: recombinant; tags: N-terminal 6xHis-lipoyl-TEV tag, cleaved; chain copies: 4; dsDNA, one strand shown
Sequence (P02340 whole entry): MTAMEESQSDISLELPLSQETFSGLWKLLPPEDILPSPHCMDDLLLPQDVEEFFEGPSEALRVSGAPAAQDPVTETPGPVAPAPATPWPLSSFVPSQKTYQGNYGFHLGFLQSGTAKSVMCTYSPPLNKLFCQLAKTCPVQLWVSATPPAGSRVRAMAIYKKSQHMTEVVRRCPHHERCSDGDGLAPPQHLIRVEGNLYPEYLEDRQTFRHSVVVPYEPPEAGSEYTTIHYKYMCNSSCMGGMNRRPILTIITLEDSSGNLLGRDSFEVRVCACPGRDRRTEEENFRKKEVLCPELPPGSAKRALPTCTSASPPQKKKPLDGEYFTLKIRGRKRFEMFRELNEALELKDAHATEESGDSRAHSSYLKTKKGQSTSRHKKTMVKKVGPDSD
# True = binding signal below 0.3 delta log10 Kd (exclusive); False = binding signal at/above 0.3 delta log10 Kd

Solved cases below.
{"columns": ["sequence.code", "measurement.target", "group"],
 "data": [
  ["CGCGCACATGTCCGGACATGTCCCGC", "Mmp53 (Mus musculus, UniProt P02340 1-390)", "True"],
  ["CGCGGACGTGTCCGGACATGTCCCGC", "Mmp53 (Mus musculus, UniProt P02340 1-390)", "False"],
  ["CGCTGACATGTCCGGACATGTCCCGC", "Mmp53 (Mus musculus, UniProt P02340 1-390)", "True"],
  ["CGCGGACACGTCCGGACATGTCCCGC", "Mmp53 (Mus musculus, UniProt P02340 1-390)", "False"],
  ["CGCGGGCATGTCCGGACATGTCCCGC", "Mmp53 (Mus musculus, UniProt P02340 1-390)", "True"]
]}

Query: Strictly below 0.3 delta log10 Kd: is that where binding signal of CGCGGCCATGTCCGGACATGTCCCGC sits?
Result: False

Query: Strictly below 0.3 delta log10 Kd: is that where binding signal of CGCCGACATGTCCGGACATGTCCCGC sits?
Result: True

Query: Strictly below 0.3 delta log10 Kd: is that where binding signal of CGCGGACATATCCGGACATGTCCCGC sits?
Result: False

Query: Strictly below 0.3 delta log10 Kd: is that where binding signal of CGCGGACATGTCTGGACATGTCCCGC sits?
Result: True

Query: Strictly below 0.3 delta log10 Kd: is that where binding signal of CGCGGACATGTCAGGACATGTCCCGC sits?
Result: True

Query: Strictly below 0.3 delta log10 Kd: is that where binding signal of CGCGGACATGTTCGGACATGTCCCGC sits?
Result: True

Query: Strictly below 0.3 delta log10 Kd: is that where binding signal of CGCGGACTTGTCCGGACATGTCCCGC sits?
Result: True

Query: Strictly below 0.3 delta log10 Kd: is that where binding signal of CGCGGACCTGTCCGGACATGTCCCGC sits?
Result: False

Query: Strictly below 0.3 delta log10 Kd: is that where binding signal of CGCGGACAAGTCCGGACATGTCCCGC sits?
Result: True

###

Biological target: ΔNp63γ (Homo sapiens, UniProt Q9H3D4-6 1-393)
Sequence: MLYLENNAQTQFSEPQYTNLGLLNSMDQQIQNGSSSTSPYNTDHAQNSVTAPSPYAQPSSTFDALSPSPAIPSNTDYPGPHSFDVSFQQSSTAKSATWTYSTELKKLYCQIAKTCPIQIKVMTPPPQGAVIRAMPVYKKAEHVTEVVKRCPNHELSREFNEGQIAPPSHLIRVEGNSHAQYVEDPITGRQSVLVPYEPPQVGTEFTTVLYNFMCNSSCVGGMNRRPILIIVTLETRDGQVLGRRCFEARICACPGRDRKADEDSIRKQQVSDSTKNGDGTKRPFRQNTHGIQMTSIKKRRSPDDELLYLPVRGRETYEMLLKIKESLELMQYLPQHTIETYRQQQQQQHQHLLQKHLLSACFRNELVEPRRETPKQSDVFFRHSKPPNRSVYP
Test: fluorescence anisotropy competition titration; 25 mM sodium phosphate (purification buffer pH 7.2), 225 mM NaCl, 10% v/v glycerol, 5 mM DTT, 0.2 mg/mL BSA, 22 C; low values mean tight binding
Conditions: protein: recombinant; tags: N-terminal 6xHis-lipoyl-TEV tag, cleaved; chain copies: 4; dsDNA, one strand shown
assay.readout: binding signal (delta log10 Kd)
Numeric answer only, unit delta log10 Kd assumed.

Field: example entries. Status: answers known.
{"columns": ["sequence.code", "assay.readout", "reported"],
 "data": [
  ["CGCGGACATATCCGGACATGTCCCGC", "binding signal", 1.31],
  ["CGCGGATATGTCCGGACATGTCCCGC", "binding signal", 0.97],
  ["CGCGTACATGTCCGGACATGTCCCGC", "binding signal", 0.21],
  ["CGCGGTCATGTCCGGACATGTCCCGC", "binding signal", 0.49],
  ["CGCGGACATGCCCGGACATGTCCCGC", "binding signal", 0.12],
  ["CGCGGACATGACCGGACATGTCCCGC", "binding signal", 0.72],
  ["CGCGAACATGTCCGGACATGTCCCGC", "binding signal", 0.1],
  ["CGCGGACGTGTCCGGACATGTCCCGC", "binding signal", 0.19],
  ["CGCGGGCATGTCCGGACATGTCCCGC", "binding signal", 0.06],
  ["CGCGGACAAGTCCGGACATGTCCCGC", "binding signal", 0.19]
]}

Query: Would you mind telling me what binding signal value was observed for CGCGGAGATGTCCGGACATGTCCCGC ?
Result: 1.19

Query: Would you mind telling me what binding signal value was observed for CGCGGACATGTGCGGACATGTCCCGC ?
Result: 0.49

Query: Would you mind telling me what binding signal value was observed for CGCGGACATCTCCGGACATGTCCCGC ?
Result: 1.68

Query: Would you mind telling me what binding signal value was observed for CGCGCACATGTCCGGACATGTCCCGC ?
Result: 0.37

Query: Would you mind telling me what binding signal value was observed for CGCAGACATGTCCGGACATGTCCCGC ?
Result: 0.04

###

target: Hsp53 (Homo sapiens, UniProt P04637 1-393); test: fluorescence anisotropy competition titration; 25 mM sodium phosphate (purification buffer pH 7.2), 225 mM NaCl, 10% v/v glycerol, 5 mM DTT, 0.2 mg/mL BSA, 22 C; low values mean tight binding; conditions: protein: recombinant; tags: N-terminal 6xHis-lipoyl-TEV tag, cleaved; chain copies: 4; dsDNA, one strand shown
Sequence (P04637 whole entry): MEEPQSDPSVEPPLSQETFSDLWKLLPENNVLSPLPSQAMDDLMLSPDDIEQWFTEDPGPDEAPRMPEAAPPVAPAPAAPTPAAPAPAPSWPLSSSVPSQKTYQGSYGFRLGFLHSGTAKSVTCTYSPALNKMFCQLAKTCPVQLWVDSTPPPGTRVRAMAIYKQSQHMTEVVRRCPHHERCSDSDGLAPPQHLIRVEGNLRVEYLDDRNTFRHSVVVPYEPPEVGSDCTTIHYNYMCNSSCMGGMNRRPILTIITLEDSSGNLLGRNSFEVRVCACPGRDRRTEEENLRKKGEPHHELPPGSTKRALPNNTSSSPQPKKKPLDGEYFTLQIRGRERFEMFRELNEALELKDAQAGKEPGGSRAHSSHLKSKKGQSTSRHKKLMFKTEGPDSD
assay.readout: binding signal (delta log10 Kd)
Numeric answer only, unit delta log10 Kd assumed.

Field: example entries. Status: answers known.
{"columns": ["sequence.code", "binding signal [delta log10 Kd]"],
 "data": [
  ["CGCGGTCATGTCCGGACATGTCCCGC", 0.42],
  ["CGCGGACATGTCGGGACATGTCCCGC", 0.27],
  ["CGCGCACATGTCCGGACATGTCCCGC", 0.37],
  ["CGCGGACATGGCCGGACATGTCCCGC", 0.73]
]}

Query: Find the measured binding signal: item CGCGGACATGACCGGACATGTCCCGC , target or system Hsp53 (Homo sapiens, UniProt P04637 1-393).
Result: 0.42

Query: Find the measured binding signal: item CGCGGGCATGTCCGGACATGTCCCGC , target or system Hsp53 (Homo sapiens, UniProt P04637 1-393).
Result: 0.07

Query: Find the measured binding signal: item CGCGGAGATGTCCGGACATGTCCCGC , target or system Hsp53 (Homo sapiens, UniProt P04637 1-393).
Result: 0.74

Query: Find the measured binding signal: item CGCAGACATGTCCGGACATGTCCCGC , target or system Hsp53 (Homo sapiens, UniProt P04637 1-393).
Result: 0.01

Query: Find the measured binding signal: item CGCGGACATATCCGGACATGTCCCGC , target or system Hsp53 (Homo sapiens, UniProt P04637 1-393).
Result: 0.83

Query: Find the measured binding signal: item CGCGGACATGCCCGGACATGTCCCGC , target or system Hsp53 (Homo sapiens, UniProt P04637 1-393).
Result: 0.03

Query: Find the measured binding signal: item CGCGGACGTGTCCGGACATGTCCCGC , target or system Hsp53 (Homo sapiens, UniProt P04637 1-393).
Result: 0.43

###

Biological target: Drp53 (Danio rerio, UniProt P79734 1-373)
Sequence: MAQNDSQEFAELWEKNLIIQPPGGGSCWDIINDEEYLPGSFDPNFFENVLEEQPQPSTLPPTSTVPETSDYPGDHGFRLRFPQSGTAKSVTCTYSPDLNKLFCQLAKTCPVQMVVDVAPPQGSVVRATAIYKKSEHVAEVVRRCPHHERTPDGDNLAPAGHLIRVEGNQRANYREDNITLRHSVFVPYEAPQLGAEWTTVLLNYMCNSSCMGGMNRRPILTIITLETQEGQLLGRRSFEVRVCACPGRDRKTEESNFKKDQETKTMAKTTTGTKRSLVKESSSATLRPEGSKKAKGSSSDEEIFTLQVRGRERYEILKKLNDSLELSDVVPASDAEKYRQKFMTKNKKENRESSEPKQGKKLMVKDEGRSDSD
Experiment: fluorescence anisotropy competition titration; 25 mM sodium phosphate (purification buffer pH 7.2), 225 mM NaCl, 10% v/v glycerol, 5 mM DTT, 0.2 mg/mL BSA, 22 C; low values mean tight binding
Settings: protein: recombinant; tags: N-terminal 6xHis-lipoyl-TEV tag, cleaved; chain copies: 4; dsDNA, one strand shown
assay.readout: binding signal

Field: example entries. Status: answers known.
{"columns": ["sequence.code", "binding signal"],
 "data": [
  ["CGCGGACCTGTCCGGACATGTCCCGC", "0.77 delta log10 Kd"],
  ["CGCCGACATGTCCGGACATGTCCCGC", "0.15 delta log10 Kd"],
  ["CGCGGTCATGTCCGGACATGTCCCGC", "0.48 delta log10 Kd"],
  ["CGCGAACATGTCCGGACATGTCCCGC", "0.08 delta log10 Kd"],
  ["CGCAGACATGTCCGGACATGTCCCGC", "0.01 delta log10 Kd"],
  ["CGCGGCCATGTCCGGACATGTCCCGC", "0.86 delta log10 Kd"],
  ["CGCGGATATGTCCGGACATGTCCCGC", "0.58 delta log10 Kd"],
  ["CGCGGACATGTTCGGACATGTCCCGC", "0.38 delta log10 Kd"],
  ["CGCGGACAGGTCCGGACATGTCCCGC", "0.65 delta log10 Kd"],
  ["CGCGGAGATGTCCGGACATGTCCCGC", "0.95 delta log10 Kd"]
]}

Query: Would you mind telling me what binding signal value was observed for CGCGGACATGTCTGGACATGTCCCGC ?
Result: 0.02 delta log10 Kd

Query: Would you mind telling me what binding signal value was observed for CGCGGACATGTCAGGACATGTCCCGC ?
Result: 0.32 delta log10 Kd

Query: Would you mind telling me what binding signal value was observed for CGCGGACATGTGCGGACATGTCCCGC ?
Result: 0.54 delta log10 Kd

Query: Would you mind telling me what binding signal value was observed for CGCGGACATTTCCGGACATGTCCCGC ?
Result: 1.37 delta log10 Kd

Query: Would you mind telling me what binding signal value was observed for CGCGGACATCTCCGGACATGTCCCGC ?
Result: 1.3 delta log10 Kd

Query: Would you mind telling me what binding signal value was observed for CGCTGACATGTCCGGACATGTCCCGC ?
Result: 0.22 delta log10 Kd

Query: Would you mind telling me what binding signal value was observed for CGCGTACATGTCCGGACATGTCCCGC ?
Result: 0.21 delta log10 Kd

Query: Would you mind telling me what binding signal value was observed for CGCGGACTTGTCCGGACATGTCCCGC ?
Result: 0.3 delta log10 Kd

Query: Would you mind telling me what binding signal value was observed for CGCGGACATATCCGGACATGTCCCGC ?
Result: 1.14 delta log10 Kd
